In this section we review reported fold induction at 15 µM values for a set of compounds.
- tgt: UniProt Q8N474
- protocol: Cell-based assay for in vitro measurement of SFRP-1/SARP2 antagonist activity (U2OS cells co-transfected with 16x TCF-tk-Luciferase reporter, Wnt and hSFRP-1)
- particulars: U2OS, read-out: Fold Induction without SFRP-1, Conc 15 μM; without SFRP-1, single dose
measure: fold induction at 15 µM

| lineNotation | measure | measuredNumber |
| --- | --- | --- |
| Cc1ccc(S(=O)(=O)c2ccc(C(C)(C)C)cc2)cc1S(=O)(=O)NC1CCOCC1 | fold induction at 15 µM | 1.1 |
| Cc1ccc(S(=O)(=O)c2ccc(C)c(S(=O)(=O)NC[C@@H](C)c3ccccc3)c2)cc1 | fold induction at 15 µM | 0.9 |
| Cc1ccc(S(=O)(=O)c2ccc(NCc3ccccc3)cc2)cc1S(=O)(=O)NCCCn1ccnc1 | fold induction at 15 µM | 0.8 |
| Cc1ccc(S(=O)(=O)c2ccc(NC3CCCCC3)cc2)cc1S(=O)(=O)NCCCn1ccnc1 | fold induction at 15 µM | 1 |
| Cc1ccc(S(=O)(=O)c2ccccc2)cc1S(=O)(=O)NCCN1CCOCC1 | fold induction at 15 µM | 0.7 |
| Cc1ccc(S(=O)(=O)c2ccc(Cl)cc2)cc1S(=O)(=O)NC[C@@H](C)c1ccccc1 | fold induction at 15 µM | 1.1 |
| O=S(=O)(NCCCn1ccnc1)c1cc(S(=O)(=O)c2ccccc2)ccc1Cl | fold induction at 15 µM | 1 |
| CCc1ccccc1S(=O)(=O)c1ccc(C)c(S(=O)(=O)NCCc2ccccn2)c1 | fold induction at 15 µM | 0.8 |

###

- tgt: SFRP-1 (Homo sapiens, UniProt Q8N474)
- Sequence (Q8N474 32-314): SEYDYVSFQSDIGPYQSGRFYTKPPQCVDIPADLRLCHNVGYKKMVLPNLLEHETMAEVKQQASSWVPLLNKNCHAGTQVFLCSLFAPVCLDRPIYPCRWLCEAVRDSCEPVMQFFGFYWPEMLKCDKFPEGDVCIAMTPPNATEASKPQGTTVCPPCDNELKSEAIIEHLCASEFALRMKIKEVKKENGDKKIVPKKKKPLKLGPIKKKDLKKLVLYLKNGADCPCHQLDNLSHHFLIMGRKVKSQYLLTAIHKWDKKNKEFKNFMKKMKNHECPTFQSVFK
- protocol: Cell-based assay for in vitro measurement of SFRP-1/SARP2 antagonist activity (U2OS cells co-transfected with 16x TCF-tk-Luciferase reporter, Wnt and hSFRP-1)
- particulars: U2OS, read-out: Fold Induction with SFRP-1, Conc 15 μM; single dose; luciferase reporter, fold induction over SFRP-1 control; cells with SFRP-1
In this section we review reported fold induction at 15 µM values for a set of molecules.
measure: fold induction at 15 µM

| lineNotation | measure | measuredNumber |
| --- | --- | --- |
| CC(C)c1cc(C(C)C)c(S(=O)(=O)c2ccc(F)cc2)cc1S(=O)(=O)NCCC1CCOCC1 | fold induction at 15 µM | 2.2 |
| COc1cccc(S(=O)(=O)c2ccc(Cl)c(S(=O)(=O)NC3CCOCC3)c2)c1 | fold induction at 15 µM | 1.9 |
| Cc1ccc(S(=O)(=O)c2ccccc2)cc1S(=O)(=O)NC1CCN(C(=O)c2ccno2)CC1 | fold induction at 15 µM | 2.5 |
| CC(C)c1cc(C(C)C)c(S(=O)(=O)c2ccc(F)cc2)cc1S(=O)(=O)NC1Cc2ccccc2C1 | fold induction at 15 µM | 3 |
| Cc1ccc(S(=O)(=O)c2ccccc2)cc1S(=O)(=O)NC1CCN(C(=O)NC(C)(C)C)CC1 | fold induction at 15 µM | 1.7 |
| CC(C)c1ccc(S(=O)(=O)c2ccc(F)c(Cl)c2)cc1S(=O)(=O)NCCc1ccccn1 | fold induction at 15 µM | 3.4 |
| CC(C)c1ccc(S(=O)(=O)c2ccc(NCCC#N)cc2)cc1S(=O)(=O)NCCC1CCOCC1 | fold induction at 15 µM | 2.9 |
| CCCc1ccc(S(=O)(=O)c2ccccc2)cc1S(=O)(=O)NC1CCCC1 | fold induction at 15 µM | 2.6 |

###

- tgt: SFRP-1 (Homo sapiens, UniProt Q8N474)
- protocol: Cell-based assay for in vitro measurement of SFRP-1/SARP2 antagonist activity (U2OS cells co-transfected with 16x TCF-tk-Luciferase reporter, Wnt and hSFRP-1)
- particulars: U2OS, read-out: Fold Induction without SFRP-1, Conc 15 μM; without SFRP-1, single dose
Criterion: fold induction at 15 µM strictly under 1. Met: criterion met. Not met: criterion not met.

| lineNotation | label |
| --- | --- |
| Cc1ccc(S(=O)(=O)c2ccccc2C)cc1S(=O)(=O)NCCc1ccccn1 | criterion met |
| COC(=O)[C@@H](Cc1ccccc1)NS(=O)(=O)c1cc(S(=O)(=O)c2ccccc2)ccc1C | criterion not met |
| Cc1ccc(S(=O)(=O)c2ccccc2)cc1S(=O)(=O)NCC1CCOCC1 | criterion met |
| Cc1ccc(S(=O)(=O)c2ccc(NCCCOC(C)C)cc2)cc1S(=O)(=O)NCCCn1ccnc1 | criterion met |
| Cc1ccc(S(=O)(=O)c2ccccc2)cc1S(=O)(=O)NC1CCN(S(=O)(=O)c2ccccc2)CC1 | criterion not met |
| Cc1ccc(S(=O)(=O)c2ccc(F)cc2)cc1S(=O)(=O)NCC1CCOCC1 | criterion met |
| CNc1ccc(S(=O)(=O)c2ccc(C)c(S(=O)(=O)NCCCn3ccnc3)c2)cc1 | criterion not met |
| Cc1ccc(S(=O)(=O)c2ccc3[nH]ccc3c2)cc1S(=O)(=O)NCCc1ccccn1 | criterion met |
| Cc1ccc(S(=O)(=O)c2ccc(C)c(S(=O)(=O)NCCc3ccccc3F)c2)cc1 | criterion met |
| COCCCNS(=O)(=O)c1cc(S(=O)(=O)c2ccccc2)ccc1OC | criterion met |
| CCc1ccc(S(=O)(=O)c2ccccc2)cc1S(=O)(=O)NCCc1ccc(S(N)(=O)=O)cc1 | criterion not met |
| O=S(=O)(NCCc1cccc(F)c1)c1cccc(S(=O)(=O)c2ccccc2)c1 | criterion met |

###

- tgt: SFRP-1 (Homo sapiens, UniProt Q8N474)
- protocol: Cell-based assay for in vitro measurement of SFRP-1/SARP2 antagonist activity (U2OS cells co-transfected with 16x TCF-tk-Luciferase reporter, Wnt and hSFRP-1)
- particulars: U2OS, read-out: Fold Induction without SFRP-1, Conc 15 μM; without SFRP-1, single dose
Criterion: fold induction at 15 µM strictly under 1. Met: class 1. Not met: class 0.

| compound | label |
| --- | --- |
| Cc1ccc(S(=O)(=O)c2ccccc2)cc1S(=O)(=O)NCCCn1ccnc1 | class 0 |
| Cc1ccc(S(=O)(=O)c2ccc3ccccc3c2)cc1S(=O)(=O)NCCCn1ccnc1 | class 0 |
| Cc1ccc(S(=O)(=O)c2ccc(N=[N+]=[N-])cc2)cc1S(=O)(=O)NCCCn1ccnc1 | class 1 |
| CCc1ccc(S(=O)(=O)c2ccccc2)cc1S(=O)(=O)NCCc1ccccn1 | class 1 |
| Cc1ccc(S(=O)(=O)c2ccc(NC(C)c3ccccc3)cc2)cc1S(=O)(=O)NCCCn1ccnc1 (stereo not shown) | class 1 |
| CCc1ccc(S(=O)(=O)c2ccccc2)cc1S(=O)(=O)NC1Cc2ccccc2C1 | class 0 |
| CCc1ccc(S(=O)(=O)c2ccccc2)cc1S(=O)(=O)NC[C@H](C)c1ccccc1 | class 0 |
| C/C(=N\O)c1ccc(S(=O)(=O)c2ccc(C)c(S(=O)(=O)NC3CCOCC3)c2)cc1 | class 0 |
| Cc1ccc(S(=O)(=O)c2ccccc2)cc1S(=O)(=O)NCC(F)(F)F | class 0 |
| COc1ccc(S(=O)(=O)c2ccc(C)c(S(=O)(=O)NCCc3ccccn3)c2)c(OC)c1 | class 0 |
| Cc1ccc(S(=O)(=O)c2ccc(Cl)cc2Cl)cc1S(=O)(=O)NCCCn1ccnc1 | class 1 |
| Cc1ccc(S(=O)(=O)c2ccc(Cl)cc2)cc1S(=O)(=O)NCCc1ccccn1 | class 1 |

###

- tgt: SFRP-1 (Homo sapiens)
- protocol: Cell-based assay for in vitro measurement of SFRP-1/SARP2 antagonist activity (U2OS cells co-transfected with 16x TCF-tk-Luciferase reporter, Wnt and hSFRP-1)
Criterion: EC50 strictly under 2000 nM. Met: met. Not met: not met.

| lineNotation | label |
| --- | --- |
| COCCCNS(=O)(=O)c1cc(S(=O)(=O)c2ccccc2)ccc1C(F)(F)F | met |
| CN(CCNS(=O)(=O)c1cc(S(=O)(=O)c2ccccc2)ccc1C(F)(F)F)C(=O)c1ccncc1 | met |
| COc1ccc(NC(=S)N2CCC(NS(=O)(=O)c3cc(S(=O)(=O)c4ccc(F)cc4)ccc3C(C)C)CC2)cc1 | not met |
| CN(CCNS(=O)(=O)c1cc(S(=O)(=O)c2ccccc2)ccc1C(F)(F)F)C(=O)N[C@H]1CCNC1 | not met |
| O=S(=O)(NC1CCN(S(=O)(=O)c2ccc(O)cc2)CC1)c1cc(S(=O)(=O)c2ccccc2)ccc1C(F)(F)F | met |
| N#CCCNS(=O)(=O)c1cc(S(=O)(=O)c2cccc(Cl)c2)ccc1C(F)(F)F | met |
| O=C(O)CN1CCC(CCNS(=O)(=O)c2cc(S(=O)(=O)c3ccccc3)ccc2C(F)(F)F)CC1 | met |

###

- tgt: SFRP-1 (Homo sapiens)
- protocol: Cell-based assay for in vitro measurement of SFRP-1/SARP2 antagonist activity (U2OS cells co-transfected with 16x TCF-tk-Luciferase reporter, Wnt and hSFRP-1);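 note: U2OS cells co-transfected with a TCF-tk luciferase reporter, a Wnt vector, hSFRP-1 or empty vector and CMV-βgal, luciferase luminescence read in cell lysates alongside βgal activity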
- particulars: U2OS, read-out: Fold Induction with SFRP-1, Conc 15 μM; single dose; luciferase reporter, fold induction over SFRP-1 control; cells with SFRP-1
measure: fold induction at 15 µM

| lineNotation | tgt | measure | measuredNumber |
| --- | --- | --- | --- |
| CC(C)c1cc(C(C)C)c(S(=O)(=O)c2ccccc2)cc1S(=O)(=O)NCCc1ccccn1 | SFRP-1 (Homo sapiens) | fold induction at 15 µM | 1.8 |
| CC(=O)N1CCC(NS(=O)(=O)c2cc(S(=O)(=O)c3ccc(F)cc3)ccc2C(C)C)CC1 | SFRP-1 (Homo sapiens) | fold induction at 15 µM | 2.8 |
| Cc1c(C#N)cccc1S(=O)(=O)c1ccc(C(C)C)c(S(=O)(=O)NCCc2ccccn2)c1 | SFRP-1 (Homo sapiens) | fold induction at 15 µM | 2 |
| COC(=O)N1CCC(NS(=O)(=O)c2cc(S(=O)(=O)c3ccccc3)ccc2C)CC1 | SFRP-1 (Homo sapiens) | fold induction at 15 µM | 2 |
| Cc1c(Br)cccc1S(=O)(=O)c1ccc(C(C)C)c(S(=O)(=O)NCCc2ccccn2)c1 | SFRP-1 (Homo sapiens) | fold induction at 15 µM | 1.9 |
| CC(C)c1ccc([S@@+]([O-])c2ccccc2)cc1S(=O)(=O)NCCc1ccccn1 | SFRP-1 (Homo sapiens) | fold induction at 15 µM | 3.1 |
| Cc1nccn1CCNS(=O)(=O)c1cc(S(=O)(=O)c2ccc(F)cc2)ccc1C(C)C | SFRP-1 (Homo sapiens) | fold induction at 15 µM | 3.9 |
| Cc1cc(F)ccc1S(=O)(=O)c1ccc(C(C)C)c(S(=O)(=O)NCCc2ccccn2)c1 | SFRP-1 (Homo sapiens) | fold induction at 15 µM | 4.2 |

The reported measurements were obtained from patent US20060276464A1.
